From: patent US5602101A

Exercise: for every item that follows, state its recorded Enzyme Kass, Human Thrombin.
- experimental target: human thrombin (Homo sapiens, UniProt P00734)
- Construct: purified human thrombin Enzyme Research Laboratories, South Bend, Ind; purchased Enzyme Research Laboratories, South Bend, Ind
- assay remarks: Inhibition of amidase activity of thrombin (chromogenic substrate), Kass
- Type: biochemical
- condition set: substrate N-benzoyl-Phe-Val-Arg-p-nitroanilide, pH 7.4
I only need the number, in L/mol × 10^6, no unit after it.

input: Enzyme Kass, Human Thrombin lookup needed for CCS(=O)(=O)N[C@@H](C(=O)N1CCC[C@H]1C(=O)N[C@H](C=O)CCCNC(=N)N)c1ccccc1.Cl [Example 20, EtSO2 -D-Phg-Pro-Arg-H.HCl] , thanks.
output: 510

input: # lookup: Enzyme Kass, Human Thrombin of COc1ccc(OC)c(S(=O)(=O)N[C@H](Cc2ccccc2)C(=O)N2CCC[C@H]2C(=O)N[C@H](C=O)CCCNC(=N)N)c1.Cl [Example 15, 2,5-(MeO)2 -PhSO2 -D-Phe-Pro-Arg-H-HCl]
output: 200

input: Would you mind telling me what Enzyme Kass, Human Thrombin value was observed for CC(=O)N[C@H](Cc1ccccc1)C(=O)N1CCC[C@H]1C(=O)N[C@H](C=O)CCCN=C(N)N.Cl [Example 23, Ac-D-Phe-Pro-Arg-H.HCl] ?
output: 3.4
